test target: Phosphatidylinositol 4,5-bisphosphate 3-kinase catalytic subunit gamma isoform (Homo sapiens, UniProt P48736)
Sequence (P48736 whole entry, canonical isoform): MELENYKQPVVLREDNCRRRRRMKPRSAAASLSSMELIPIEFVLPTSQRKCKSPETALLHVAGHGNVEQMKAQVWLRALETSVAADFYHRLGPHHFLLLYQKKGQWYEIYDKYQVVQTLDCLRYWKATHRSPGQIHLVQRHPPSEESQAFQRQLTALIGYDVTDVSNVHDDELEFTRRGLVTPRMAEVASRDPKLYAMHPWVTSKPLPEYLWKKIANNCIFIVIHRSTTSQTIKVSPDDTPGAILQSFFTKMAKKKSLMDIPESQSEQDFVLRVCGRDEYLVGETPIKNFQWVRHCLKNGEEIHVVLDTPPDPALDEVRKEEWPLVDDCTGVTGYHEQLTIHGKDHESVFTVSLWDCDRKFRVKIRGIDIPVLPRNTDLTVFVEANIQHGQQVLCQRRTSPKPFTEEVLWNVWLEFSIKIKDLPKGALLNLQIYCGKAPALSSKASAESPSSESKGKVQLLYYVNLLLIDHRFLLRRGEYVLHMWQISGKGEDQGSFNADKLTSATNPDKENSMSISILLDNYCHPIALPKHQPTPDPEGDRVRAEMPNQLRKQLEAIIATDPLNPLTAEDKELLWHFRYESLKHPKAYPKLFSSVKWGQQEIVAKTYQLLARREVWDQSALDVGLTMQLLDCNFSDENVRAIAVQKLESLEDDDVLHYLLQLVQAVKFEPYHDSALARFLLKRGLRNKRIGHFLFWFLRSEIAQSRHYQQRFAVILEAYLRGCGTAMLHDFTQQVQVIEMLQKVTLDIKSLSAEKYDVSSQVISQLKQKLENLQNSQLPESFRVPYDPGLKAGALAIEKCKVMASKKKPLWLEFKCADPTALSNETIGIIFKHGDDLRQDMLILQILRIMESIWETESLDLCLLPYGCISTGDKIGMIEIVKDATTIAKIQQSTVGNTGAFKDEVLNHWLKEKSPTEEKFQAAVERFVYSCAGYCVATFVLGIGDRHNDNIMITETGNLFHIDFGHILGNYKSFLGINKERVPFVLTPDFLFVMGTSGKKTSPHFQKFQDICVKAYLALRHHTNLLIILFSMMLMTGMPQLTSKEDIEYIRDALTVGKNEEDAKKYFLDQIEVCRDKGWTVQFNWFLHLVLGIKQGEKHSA
experiment notes: Inhibition of recombinant human full length His-tagged p110gamma expressed in baculovirus expression system measured after 60 mins in presence of ATP by ATP-competitive binding assay
pIC50: −log10 of the molar value.
The entries below are paired with their reported pIC50.
observation type: pIC50

{"columns": ["structure notation", "endpoint result"],
 "data": [
  ["CCC[C@H](Nc1ncnc2nc[nH]c12)c1nc2cccc(Cl)c2c(=O)n1-c1ccccc1", 7.74],
  ["CC(C)[C@H](Nc1ncnc2nc[nH]c12)c1nc2cccc(F)c2c(=O)n1-c1ccccc1", 6.50],
  ["O=c1c2c(F)cccc2nc([C@@H](Nc2ncnc3nc[nH]c23)C2CC2)n1-c1ccccc1", 7.72],
  ["O=c1c2c(F)cccc2nc([C@@H](Nc2ncnc3nc[nH]c23)C2CCC2)n1-c1ccccc1", 6.81],
  ["O=c1c2c(Cl)cccc2nc([C@@H](Nc2ncnc3nc[nH]c23)C2CC2)n1-c1ccccc1", 7.98]
]}

This collection of values is drawn from ChEMBL document CHEMBL4834477.
